// provenance: patent US20250195521A1

# targetUnderTest: NRAS WT (Homo sapiens (Human), UniProt P01111+P62937)
# Sequence (P01111 whole entry, one chain of several): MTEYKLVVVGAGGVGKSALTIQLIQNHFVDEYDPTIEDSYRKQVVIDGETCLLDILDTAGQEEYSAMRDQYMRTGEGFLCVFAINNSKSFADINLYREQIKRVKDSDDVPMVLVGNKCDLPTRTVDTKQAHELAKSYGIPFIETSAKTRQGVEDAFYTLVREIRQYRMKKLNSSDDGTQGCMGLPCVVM
# methodSummary: Ras-Raf disruption/FRET/MOA assay (BRAF RBD, Cyclophilin A)
# Assay type: biochemical
pIC50: −log10 of the molar value.
pIC50 values for the compounds below.

Input `CCn1c(-c2cccnc2[C@H](C)OC)c2c3cc(ccc31)-c1csc(n1)C[C@H](NC(=O)[C@H](C(C)C)N(C)C(=O)N1CCC[C@H](N(C)C)CC1)C(=O)N1CCC[C@H](N1)C(=O)OCC(C)(C)C2` , output reported pIC50. 7.00 to 8.00

Input `CCn1c(-c2cccnc2[C@H](C)OC)c2c3cc(ccc31)-c1csc(n1)C[C@H](NC(=O)[C@H](C(C)C)N(C)C(=O)N1CC[C@@H]1C)C(=O)N1CCC[C@H](N1)C(=O)OCC(C)(C)C2` , output reported pIC50. 7.00 to 8.00

Input `CCn1c(-c2cccnc2[C@H](C)OC)c2c3cc(ccc31)-c1csc(n1)C[C@H](NC(=O)[C@H](C(C)C)N(C)C(=O)N1C[C@H]3CN(C)CC[C@H]31)C(=O)N1CCC[C@H](N1)C(=O)OCC(C)(C)C2` , output reported pIC50. 5.00 to 6.00

Input `CCn1c(-c2cccnc2[C@H](C)OC)c2c3cc(ccc31)-c1csc(n1)C[C@H](NC(=O)[C@H](C(C)C)N(C)C(=O)N1C3COCC1C3)C(=O)N1CCC[C@H](N1)C(=O)OCC(C)(C)C2` , output reported pIC50. 6.00 to 7.00

Input `CCn1c(-c2cc(N3CCN(C)CC3)cnc2[C@H](C)OC)c2c3cc(ccc31)-c1csc(n1)C[C@H](NC(=O)[C@H](C(C)C)N(C)C(=O)N1CC(C3COC3)C1)C(=O)N1CCC[C@H](N1)C(=O)OCC(C)(C)C2` , output reported pIC50. 7.00 to 8.00

Input `CCn1c(-c2cccnc2[C@H](C)OC)c2c3cc(ccc31)-c1csc(n1)C[C@H](NC(=O)[C@H](C(C)C)N(C)C(=O)N(C)[C@@H]1CCN(C)C1)C(=O)N1CCC[C@H](N1)C(=O)OCC(C)(C)C2` , output reported pIC50. 6.00 to 7.00

###

# targetUnderTest: NRAS G12C (Homo sapiens (Human), UniProt P01111+P62937, G12C)
# Sequence (P01111 whole entry G12C, one chain of several): as the sequence (P01111 whole entry, one chain of several) above, with G12C counted along it
# methodSummary: Ras-Raf disruption/FRET/MOA assay (BRAF RBD, Cyclophilin A)
# Type: biochemical
# setupConditions: read-out: NRAS G12C FRET data IC50
IC50 values for the molecules below.

Input CCn1c(-c2cccnc2[C@H](C)OC)c2c3cc(ccc31)-c1cc(O)cc(c1)C[C@H](NC(=O)[C@H](C(C)C)N(C)C(=O)[C@H]1C[C@H]1O)C(=O)N1CCC[C@H](N1)C(=O)OCC(C)(C)C2 [Compound A554] , output reported IC50. 0.01 to 0.1 µM

Input CCn1c(-c2cccnc2[C@H](C)OC)c2c3cc(ccc31)-c1cc(O)cc(c1)C[C@H](NS(=O)(=O)C1CC1)C(=O)N1CCC[C@H](N1)C(=O)OCC(C)(C)C2 [Compound A196] , output reported IC50. > 10 µM

Input CCn1c(-c2cccnc2[C@H](C)OC)c2c3cc(ccc31)-c1cc(O)cc(c1)C[C@H](NC(=O)C13CCCC1C3(F)F)C(=O)N1CCC[C@H](N1)C(=O)OCC(C)(C)C2 (stereo partly shown) [Compound A180] , output reported IC50. 1 to 10 µM

Input CCn1c(-c2cnccc2COC)c2c3cc(ccc31)-c1cc(O)cc(c1)C[C@H](NC(=O)[C@@H](OC(=O)N1CCCC1)C(C)C)C(=O)N1CCC[C@H](N1)C(=O)OCC(C)(C)C2 [Compound A59] , output reported IC50. 1 to 10 µM

Input CCn1c(-c2cccnc2[C@H](C)OC)c2c3cc(ccc31)-c1csc(n1)C[C@H](NC(=O)[C@H](C(C)C)N(C)C(=O)N1CCC1)C(=O)N1CCC[C@H](N1)C(=O)OCC(C)(C)C2 [Compound A399] , output reported IC50. 0.01 to 0.1 µM

Input CCn1c(-c2cccnc2[C@H](C)OC)c2c3cc(ccc31)-c1cccc(c1)C[C@H](NC(=O)[C@H](C(C)C)N(C)C(=O)C1COC1)C(=O)N1CCC[C@H](N1)C(=O)OCC(C)(C)C2 [Compound A246] , output reported IC50. 1 to 10 µM

###

# targetUnderTest: KRAS G12S (Homo sapiens (Human), UniProt P01116+P62937, G12S)
# Sequence (P01116 other isoform, or with tags, fused parts or gaps G12S, one chain of several): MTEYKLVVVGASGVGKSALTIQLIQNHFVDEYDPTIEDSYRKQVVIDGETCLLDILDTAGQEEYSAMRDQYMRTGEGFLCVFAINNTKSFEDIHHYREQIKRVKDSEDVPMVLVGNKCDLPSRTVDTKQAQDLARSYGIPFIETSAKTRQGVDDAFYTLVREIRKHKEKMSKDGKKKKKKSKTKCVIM
# methodSummary: Ras-Raf disruption/FRET/MOA assay (BRAF RBD, Cyclophilin A)
# Format: biochemical
# setupConditions: read-out: KRAS G12S FRET IC50
pIC50: −log10 of the molar value.
pIC50 values for the molecules below.

Supply pIC50 measured with KRAS G12S (Homo sapiens (Human), UniProt P01116+P62937, G12S) for `CCn1c(-c2cc(N3CCN(C)CC3)cnc2[C@H](C)OC)c2c3cc(ccc31)-c1nc(co1)C[C@H](NC(=O)[C@H]1[C@H](C)[C@@H]1C)C(=O)N1CCC[C@H](N1)C(=O)OCC(C)(C)C2` . 7.00 to 8.00

Supply pIC50 measured with KRAS G12S (Homo sapiens (Human), UniProt P01116+P62937, G12S) for `CCn1c(-c2cccnc2[C@H](C)OC)c2c3cc(ccc31)-c1cc(O)cc(c1)C[C@H](NC(=O)[C@H](C(C)C)N(C)C(=O)[C@H]1CN[C@@H]3CCO[C@H]13)C(=O)N1CCC[C@H](N1)C(=O)OCC(C)(C)C2` . 6.00 to 7.00

Supply pIC50 measured with KRAS G12S (Homo sapiens (Human), UniProt P01116+P62937, G12S) for `CCn1c(-c2cccnc2[C@H](C)OC)c2c3cc(ccc31)-c1csc(n1)C[C@H](NC(=O)[C@H](C(C)C)N(C)C(=O)N1CC(N)C1)C(=O)N1CCC[C@H](N1)C(=O)OCC(C)(C)C2` . 6.00 to 7.00

###

# targetUnderTest: KRAS G13D (Homo sapiens (Human), UniProt P01116+P62937, G13D)
# Sequence (P01116 other isoform, or with tags, fused parts or gaps G13D): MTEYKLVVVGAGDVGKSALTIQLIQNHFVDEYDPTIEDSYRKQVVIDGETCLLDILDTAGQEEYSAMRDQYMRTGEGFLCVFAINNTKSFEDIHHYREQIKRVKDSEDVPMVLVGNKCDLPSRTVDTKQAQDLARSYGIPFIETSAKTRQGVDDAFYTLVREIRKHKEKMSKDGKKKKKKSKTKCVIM
# Sequence (P62937 whole entry): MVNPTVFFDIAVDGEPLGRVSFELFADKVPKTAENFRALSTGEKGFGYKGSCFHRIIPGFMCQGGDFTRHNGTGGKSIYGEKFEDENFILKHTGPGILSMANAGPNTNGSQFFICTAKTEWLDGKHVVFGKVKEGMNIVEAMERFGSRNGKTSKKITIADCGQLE
# methodSummary: Ras-Raf disruption/FRET/MOA assay (BRAF RBD, Cyclophilin A)
# Type: biochemical
# setupConditions: read-out: KRAS G13D FRET data IC50
IC50 values for the compounds below.

- compoundStructureString: "CCn1c(-c2cnccc2COC)c2c3cc(ccc31)-c1cc(O)cc(c1)C[C@H](NC(=O)[C@H](C(C)C)N(C)C(=O)N1CCN(C)CC1)C(=O)N1CCC[C@H](N1)C(=O)OCC(C)(C)C2"
  IC50: "100 to 1000 nM"
- compoundStructureString: "CCn1c(-c2cccnc2[C@H](C)OC)c2c3cc(ccc31)-c1cc(O)cc(c1)C[C@H](NC(=O)[C@H](C(C)C)N(C)C(=O)[C@H]1CCCCNC1)C(=O)N1CCC[C@H](N1)C(=O)OCC(C)(C)C2"
  IC50: "10 to 100 nM"

Input `CCn1c(-c2cccnc2[C@H](C)OC)c2c3cc(ccc31)-c1cc(O)cc(c1)C[C@H](NS(=O)(=O)c1ccc(O)cc1)C(=O)N1CCC[C@H](N1)C(=O)OCC(C)(C)C2` , output reported IC50. > 10000 nM

Input `CCn1c(-c2cccnc2[C@H](C)OC)c2c3cc(ccc31)-c1csc(n1)C[C@H](NC(=O)C1(F)CC1)C(=O)N1CCC[C@H](N1)C(=O)OCC(C)(C)C2` , output reported IC50. 1000 to 10000 nM

Input `CCn1c(-c2cccnc2[C@H](C)OC)c2c3cc(ccc31)-c1csc(n1)C[C@H](NC(=O)[C@H](C(C)C)N(C)C(=O)[C@H]1[C@@H]3CNC[C@@H]31)C(=O)N1CCC[C@H](N1)C(=O)OCC(C)(C)C2` , output reported IC50. 1000 to 10000 nM

Input `CCn1c(-c2cccnc2[C@H](C)OC)c2c3cc(ccc31)-c1csc(n1)C[C@H](NC(=O)[C@H](C(C)C)N(C)C(=O)N1C[C@@H]3OCCN(C)[C@H]3C1)C(=O)N1CCC[C@H](N1)C(=O)OCC(C)(C)C2` , output reported IC50. 100 to 1000 nM

Input `CCn1c(-c2cccnc2[C@H](C)OC)c2c3cc(ccc31)-c1csc(n1)C[C@H](NC(=O)[C@H](C(C)C)N(C)C(=O)N1CC3(CC(N(C)C(C)C)C3)C1)C(=O)N1CCC[C@H](N1)C(=O)OCC(C)(C)C2` , output reported IC50. 100 to 1000 nM

###

# targetUnderTest: KRAS WT (Homo sapiens (Human), UniProt P01116+P62937)
# Sequence (P01116 other isoform, or with tags, fused parts or gaps, one chain of several): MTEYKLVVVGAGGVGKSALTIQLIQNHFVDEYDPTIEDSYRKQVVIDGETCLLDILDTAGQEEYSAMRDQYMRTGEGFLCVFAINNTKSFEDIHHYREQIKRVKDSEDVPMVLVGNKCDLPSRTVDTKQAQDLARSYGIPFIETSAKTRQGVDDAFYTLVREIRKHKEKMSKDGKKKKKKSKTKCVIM
# methodSummary: Ras-Raf disruption/FRET/MOA assay, KRAS WT
# Format: biochemical
# setupConditions: read-out: KRAS WT FRET IC50
IC50 values for the molecules below.

- molecule: "CCn1c(-c2cnccc2COC)c2c3cc(ccc31)-c1cc(O)cc(c1)C[C@H](NC(=O)[C@H](C(C)C)N(C)C(=O)N1CCCN(C(=O)[C@@H]3CN3)CC1)C(=O)N1CCC[C@H](N1)C(=O)OCC(C)(C)C2"
  result: "10 to 100 nM"

Input `CCn1c(-c2cnccc2COC)c2c3cc(ccc31)-c1cc(O)cc(c1)C[C@H](NC(=O)[C@H](C(C)C)N(C)C(=O)c1ccc(NC(=O)[C@@H]3CN3)cn1)C(=O)N1CCC[C@H](N1)C(=O)OCC(C)(C)C2` , output reported IC50. 1000 to 10000 nM

Input `CCn1c(-c2cnccc2COC)c2c3cc(ccc31)-c1cc(O)cc(c1)C[C@H](NC(=O)[C@H](C(C)C)N(C)C(=O)CCNC1=NCCO1)C(=O)N1CCC[C@H](N1)C(=O)OCC(C)(C)C2` , output reported IC50. 10 to 100 nM

Input CCn1c(-c2cccnc2[C@H](C)OC)c2c3cc(ccc31)-c1cc(O)cc(c1)C[C@H](NC(=O)[C@H](C(C)C)N1CCC3(CC(C(=O)[C@H]4CN4)C3)C1=O)C(=O)N1CCC[C@H](N1)C(=O)OCC(C)(C)C2 (stereo partly drawn) , output reported IC50. 10 to 100 nM

Input `CCn1c(-c2cnccc2COC)c2c3cc(ccc31)-c1cc(O)cc(c1)C[C@H](NC(=O)[C@H](C(C)C)N(C)C(=O)[C@H]1CCN(C(=O)[C@H]3CN3)C1)C(=O)N1CCC[C@H](N1)C(=O)OCC(C)(C)C2` , output reported IC50. 100 to 1000 nM

Input `CCn1c(-c2cnccc2COC)c2c3cc(ccc31)-c1cc(O)cc(c1)C[C@H](NC(=O)[C@H](C(C)C)N(C)C(=O)C1CN(C(=O)[C@H]3CN3)C1)C(=O)N1CCC[C@H](N1)C(=O)OCC(C)(C)C2` , output reported IC50. 100 to 1000 nM
